Each entry below lists one item and its recorded Ratio IC50 value.
Test: Selectivity index, ratio of IC50 for human FR2 cells to IC50 for human MIAPaCa2 cells
Assay type: functional
Reported Metric: Ratio IC50

| Smiles Entry | Reported Metric | Recorded Result |
| --- | --- | --- |
| C=C(C)[C@@H]1CC[C@]2(C(=O)O)CC[C@]3(C)[C@H](CC[C@@H]4[C@@]5(C)C/C(=C\c6cccc7ccccc67)[C@H](O)C(C)(C)[C@@H]5CC[C@]43C)[C@@H]12 | Ratio IC50 | 1.416 |
| C=C(C)[C@@H]1CC[C@]2(C(=O)O)CC[C@]3(C)[C@H](CC[C@@H]4[C@@]5(C)C/C(=C\c6ccc(Br)o6)C(=O)C(C)(C)[C@@H]5CC[C@]43C)[C@@H]12 | Ratio IC50 | 2.619 |
| C=C(C)[C@@H]1CC[C@]2(C(=O)O)CC[C@]3(C)[C@H](CC[C@@H]4[C@@]5(C)C/C(=C\c6ccc(OC)cc6)C(=O)C(C)(C)[C@@H]5CC[C@]43C)[C@@H]12 | Ratio IC50 | 3.387 |

====

System: HCT-116
Assay: Cytotoxicity against human HCT116 cells assessed as reduction in cell viability after 48 hrs by SRB assay
Format: functional, cell-based
Conditions: HCT-116, 48 h
Reported Metric: IC50

| Smiles Entry | Reported Metric | Recorded Result |
| --- | --- | --- |
| C=C(C)[C@@H]1CC[C@]2(C(=O)O)CC[C@]3(C)[C@H](CC[C@@H]4[C@@]5(C)C/C(=C\c6cccc7ccccc67)C(=O)C(C)(C)[C@@H]5CC[C@]43C)[C@@H]12 | IC50 | 8.4 µM |
| C=C(C)[C@@H]1CC[C@]2(C(=O)O)CC[C@]3(C)[C@H](CC[C@@H]4[C@@]5(C)C/C(=C\c6ccc(F)cc6)C(=O)C(C)(C)[C@@H]5CC[C@]43C)[C@@H]12 | IC50 | 3.6 µM |
| C=C(C)[C@@H]1CC[C@]2(C(=O)O)CC[C@]3(C)[C@H](CC[C@@H]4[C@@]5(C)C/C(=C\c6ccc(Br)cc6)C(=O)C(C)(C)[C@@H]5CC[C@]43C)[C@@H]12 | IC50 | 4.4 µM |
| C=C(C)[C@@H]1CC[C@]2(C(=O)O)CC[C@]3(C)[C@H](CC[C@@H]4[C@@]5(C)C/C(=C\c6ccccc6Br)C(=O)C(C)(C)[C@@H]5CC[C@]43C)[C@@H]12 | IC50 | 4.3 µM |
| C=C(C)[C@@H]1CC[C@]2(C(=O)O)CC[C@]3(C)[C@H](CC[C@@H]4[C@@]5(C)C/C(=C\c6c(Cl)cccc6Cl)C(=O)C(C)(C)[C@@H]5CC[C@]43C)[C@@H]12 | IC50 | > 10 µM |
| C=C(C)[C@@H]1CC[C@]2(C(=O)O)CC[C@]3(C)[C@H](CC[C@@H]4[C@@]5(C)CC[C@H](O)C(C)(C)[C@@H]5CC[C@]43C)[C@@H]12 | IC50 | > 10 µM |
| C=C(C)[C@@H]1CC[C@]2(C(=O)O)CC[C@]3(C)[C@H](CC[C@@H]4[C@@]5(C)C/C(=C\c6ccc([N+](=O)[O-])cc6)[C@H](O)C(C)(C)[C@@H]5CC[C@]43C)[C@@H]12 | IC50 | 1.36 µM |
| C=C(C)[C@@H]1CC[C@]2(C(=O)O)CC[C@]3(C)[C@H](CC[C@@H]4[C@@]5(C)C/C(=C\c6ccc(Br)cc6)[C@H](O)C(C)(C)[C@@H]5CC[C@]43C)[C@@H]12 | IC50 | 5.7 µM |
| C=C(C)[C@@H]1CC[C@]2(C(=O)O)CC[C@]3(C)[C@H](CC[C@@H]4[C@@]5(C)CCC(=O)C(C)(C)[C@@H]5CC[C@]43C)[C@@H]12 | IC50 | > 10 µM |
| C=C(C)[C@@H]1CC[C@]2(C(=O)O)CC[C@]3(C)[C@H](CC[C@@H]4[C@@]5(C)C/C(=C\c6cccnc6)C(=O)C(C)(C)[C@@H]5CC[C@]43C)[C@@H]12 | IC50 | 1.97 µM |
| C=C(C)[C@@H]1CC[C@]2(C(=O)O)CC[C@]3(C)[C@H](CC[C@@H]4[C@@]5(C)C/C(=C\c6ccc(F)c(Br)c6)C(=O)C(C)(C)[C@@H]5CC[C@]43C)[C@@H]12 | IC50 | 5.8 µM |
| C=C(C)[C@@H]1CC[C@]2(C(=O)O)CC[C@]3(C)[C@H](CC[C@@H]4[C@@]5(C)C/C(=C\c6c(Cl)cccc6Cl)[C@H](O)C(C)(C)[C@@H]5CC[C@]43C)[C@@H]12 | IC50 | > 10 µM |
| C=C(C)[C@@H]1CC[C@]2(C(=O)O)CC[C@]3(C)[C@H](CC[C@@H]4[C@@]5(C)C/C(=C\c6cccnc6)[C@H](O)C(C)(C)[C@@H]5CC[C@]43C)[C@@H]12 | IC50 | 5.04 µM |
| C=C(C)[C@@H]1CC[C@]2(C(=O)O)CC[C@]3(C)[C@H](CC[C@@H]4[C@@]5(C)C/C(=C/C=C/c6ccccc6)C(=O)C(C)(C)[C@@H]5CC[C@]43C)[C@@H]12 | IC50 | 5.8 µM |
| C=C(C)[C@@H]1CC[C@]2(C(=O)O)CC[C@]3(C)[C@H](CC[C@@H]4[C@@]5(C)C/C(=C\c6cc(Br)ccc6OC)[C@H](O)C(C)(C)[C@@H]5CC[C@]43C)[C@@H]12 | IC50 | 5.44 µM |
| C=C(C)[C@@H]1CC[C@]2(C(=O)O)CC[C@]3(C)[C@H](CC[C@@H]4[C@@]5(C)C/C(=C\c6ccccc6Br)[C@H](O)C(C)(C)[C@@H]5CC[C@]43C)[C@@H]12 | IC50 | > 10 µM |
| C=C(C)[C@@H]1CC[C@]2(C(=O)O)CC[C@]3(C)[C@H](CC[C@@H]4[C@@]5(C)C/C(=C\c6ccsc6)[C@H](O)C(C)(C)[C@@H]5CC[C@]43C)[C@@H]12 | IC50 | > 10 µM |
| C=C(C)[C@@H]1CC[C@]2(C(=O)O)CC[C@]3(C)[C@H](CC[C@@H]4[C@@]5(C)C/C(=C\c6ccc(OC)cc6)[C@H](O)C(C)(C)[C@@H]5CC[C@]43C)[C@@H]12 | IC50 | 4.9 µM |
| C=C(C)[C@@H]1CC[C@]2(C(=O)O)CC[C@]3(C)[C@H](CC[C@@H]4[C@@]5(C)C/C(=C\c6ccc([N+](=O)[O-])cc6)C(=O)C(C)(C)[C@@H]5CC[C@]43C)[C@@H]12 | IC50 | 1.4 µM |

====

Measured Ratio IC50 of individual entries
Assay: Selectivity index, ratio of IC50 for human FR2 cells to IC50 for human MIAPaCa2 cells
Type: functional

| Smiles Entry | Ratio IC50 |
| --- | --- |
| C=C(C)[C@@H]1CC[C@]2(C(=O)O)CC[C@]3(C)[C@H](CC[C@@H]4[C@@]5(C)C/C(=C\c6ccccc6Br)C(=O)C(C)(C)[C@@H]5CC[C@]43C)[C@@H]12 | 4.698 |
| C=C(C)[C@@H]1CC[C@]2(C(=O)O)CC[C@]3(C)[C@H](CC[C@@H]4[C@@]5(C)C/C(=C\c6ccc([N+](=O)[O-])cc6)C(=O)C(C)(C)[C@@H]5CC[C@]43C)[C@@H]12 | 2.158 |
| C=C(C)[C@@H]1CC[C@]2(C(=O)O)CC[C@]3(C)[C@H](CC[C@@H]4[C@@]5(C)C/C(=C\c6ccsc6)C(=O)C(C)(C)[C@@H]5CC[C@]43C)[C@@H]12 | 3.913 |
| C=C(C)[C@@H]1CC[C@]2(C(=O)O)CC[C@]3(C)[C@H](CC[C@@H]4[C@@]5(C)C/C(=C\c6ccc([N+](=O)[O-])cc6)[C@H](O)C(C)(C)[C@@H]5CC[C@]43C)[C@@H]12 | 5.25 |
| C=C(C)[C@@H]1CC[C@]2(C(=O)O)CC[C@]3(C)[C@H](CC[C@@H]4[C@@]5(C)C/C(=C\c6ccc(F)cc6)C(=O)C(C)(C)[C@@H]5CC[C@]43C)[C@@H]12 | 13.15 |

====

Assay: Selectivity index, ratio of IC50 for human FR2 cells to IC50 for human A549 cells
Assay type: functional
Label class 1 when Ratio IC50 >= 5; otherwise class 0.

| Smiles Entry | Discrete Label |
| --- | --- |
| C=C(C)[C@@H]1CC[C@]2(C(=O)O)CC[C@]3(C)[C@H](CC[C@@H]4[C@@]5(C)CCC(=O)C(C)(C)[C@@H]5CC[C@]43C)[C@@H]12 | class 0 |
| C=C(C)[C@@H]1CC[C@]2(C(=O)O)CC[C@]3(C)[C@H](CC[C@@H]4[C@@]5(C)C/C(=C\c6cccc(Br)c6)C(=O)C(C)(C)[C@@H]5CC[C@]43C)[C@@H]12 | class 1 |
| C=C(C)[C@@H]1CC[C@]2(C(=O)O)CC[C@]3(C)[C@H](CC[C@@H]4[C@@]5(C)C/C(=C/C=C/c6ccccc6)C(=O)C(C)(C)[C@@H]5CC[C@]43C)[C@@H]12 | class 0 |
| C=C(C)[C@@H]1CC[C@]2(C(=O)O)CC[C@]3(C)[C@H](CC[C@@H]4[C@@]5(C)C/C(=C\c6ccc(Br)o6)C(=O)C(C)(C)[C@@H]5CC[C@]43C)[C@@H]12 | class 0 |
| C=C(C)[C@@H]1CC[C@]2(C(=O)O)CC[C@]3(C)[C@H](CC[C@@H]4[C@@]5(C)C/C(=C\c6ccc(Br)cc6)C(=O)C(C)(C)[C@@H]5CC[C@]43C)[C@@H]12 | class 1 |
